# Tested on: MCF-7 cell line (human mammary adenocarcinoma)
# assay: anti-tumour effect in vitro, growth of MCF-7 cell line (bioluminescence assay, intracellular ATP)
# Assay type: cell-based
# conditions: read-out: Antitumour effect against MCF-7 cell line (IC50 = concentration of compound where 50% inhibition of cell growth could be seen)
pIC50: −log10 of the molar value.
property: pIC50

Please review the following examples before continuing.
compound	pIC50
Oc1ccc([C@@]2(c3ccccc3)OCC[C@@H]2c2ccccc2)cc1 (relative stereo) [Compound 2]	5.00 to 5.30
CN(C)CCOc1ccc(/C(=C(/CCI)c2ccccc2)c2ccccc2)cc1 [Compound 22]	5.30 to 6.00
CN(C)CCOc1ccc(/C(=C(\CCO)c2ccccc2)c2ccccc2)cc1 [Compound 12]	5.30 to 6.00
CN(C)CCOc1ccc(/C(=C(/CCBr)c2ccccc2)c2ccccc2)cc1 [Compound 13]	5.30 to 6.00
CN(C)CCOc1ccc(/C(=C(\CCCl)c2ccccc2)c2ccccc2)cc1 [Compound 18]	5.30 to 6.00
ClCC/C(=C(/c1ccccc1)c1ccc(OCCN2CCCC2)cc1)c1ccccc1 [Compound 26]	5.30 to 6.00
Oc1ccc(/C(=C(/CCCl)c2ccccc2)c2ccccc2)cc1 [Compound 15]	5.00 to 5.30

Now look at this entry.
*Q* Dear colleague, I am looking for the recorded pIC50 of the following compound: CC(=O)OCC/C(=C(\c1ccccc1)c1ccc(OCCN(C)C)cc1)c1ccccc1 [Compound 19]
*A* 5.30 to 6.00

* * *

# Test system: MCF-7 cell line (human mammary adenocarcinoma)
# assay: anti-tumour effect in vitro, growth of MCF-7 cell line (bioluminescence assay, intracellular ATP)
# Format: cell-based
# conditions: read-out: Antitumour effect against MCF-7 cell line (IC50 = concentration of compound where 50% inhibition of cell growth could be seen)
pIC50: −log10 of the molar value.
So I've got a bunch of compounds here, and I need their pIC50 values.

compound	target.of.assay	recorded.value
CNCCOc1ccc(/C(=C(/CCCl)c2ccccc2)c2ccccc2)cc1	MCF-7 cell line (human mammary adenocarcinoma)	5.30 to 6.00
Oc1ccc([C@@H](c2ccccc2)[C@@H](CCCl)c2ccccc2)cc1 (relative stereo)	MCF-7 cell line (human mammary adenocarcinoma)	5.00 to 5.30

Please state pIC50 for every compound in the list that follows.
1. ClCC[C@H](c1ccccc1)[C@H](c1ccccc1)c1ccc(OCCN2CCCC2)cc1 (relative stereo)
2. ClCC/C(=C(\c1ccccc1)c1ccc(OCCN2CCCC2)cc1)c1ccccc1

*A*
5.00 to 5.30
> 5.30

* * *

pIC50: −log10 of the molar value.
Please consider the recorded pIC50 for oestrogen receptors (Rattus norvegicus) in what follows.

compound	recorded.value
OCC/C(=C(\c1ccccc1)c1ccc(O)cc1)c1ccccc1	5.00 to 6.00
OCCC(c1ccc(O)cc1)C(O)(c1ccccc1)c1ccc(O)cc1 (centres unmarked)	5.00 to 6.00
COc1ccc(C(=C(CCO)c2ccccc2)c2ccccc2)cc1	5.00 to 6.00
OCC/C(=C(/c1ccccc1)c1ccc(O)cc1)c1ccccc1	6.00 to 7.00
CN(C)CCOc1ccc([C@@]2(c3ccccc3)OCC[C@@H]2c2ccccc2)cc1 (relative stereo)	4.00 to 5.00
Oc1ccc(/C(=C(/CCCl)c2ccccc2)c2ccccc2)cc1	5.00 to 6.00
Oc1ccc([C@@]2(c3ccccc3)OCC[C@@H]2c2ccccc2)cc1 (relative stereo)	6.00 to 7.00

*Q* Dear colleague, I am looking for the recorded pIC50 of the following compound: OCC[C@H](c1ccccc1)[C@@](O)(c1ccccc1)c1ccc(O)cc1 (relative stereo)
*A* 5.00 to 6.00
